Test system: HIV-1MRD/C (X4)
PROTOCOL NOTES: Antiviral activity in PHA-PBMs, p24 Gag, multidrug resistant clinical isolate
Type: cell-based
CONDITION PARAMETERS: PHA-PBMs, p24 Gag
METRIC: pEC50
Give bare numbers, as −log10 of the molar value.

Query: For the compound "COC(=O)N[C@H](C(=O)N[C@@H](Cc1ccccc1)[C@@H](O)CN(Cc1ccc(-c2ccccn2)cc1)NC(=O)[C@@H](NC(=O)OC)C(C)(C)C)C(C)(C)C" , what pEC50 is on record?
Response: 7.41

###

System: HIV-1MDR/G (X4)
PROTOCOL NOTES: Antiviral activity in PHA-PBMs, p24 Gag, multidrug resistant clinical isolate
Format: cell-based
CONDITION PARAMETERS: PHA-PBMs, p24 Gag
METRIC: EC50 (nM)
Numbers only, in nM.

Query: Any idea what EC50 was measured for "COC(=O)N[C@H](C(=O)N[C@@H](Cc1ccccc1)[C@@H](O)CN(Cc1ccc(-c2ccccn2)cc1)NC(=O)[C@@H](NC(=O)OC)C(C)(C)C)C(C)(C)C" ?
Response: 19

###

TARGET SYSTEM: HIV-1 protease (Human immunodeficiency virus type 1 group M subtype B)
PROTOCOL NOTES: HIV-1 protease enzyme inhibitory assay (protocol of Toth and Marshall)
Format: biochemical
METRIC: Ki

These recorded examples may help you get a feel for the data.
# COMPOUND, RECORDED VALUE
rows = [
    ("COc1ccc(C[C@H](NC(=O)O[C@H]2CCO[C@H]3OCC[C@H]32)[C@H](O)CN(CC(C)C)S(=O)(=O)c2ccc3nc(NC(C)C)oc3c2)cc1", "< 0.1 nM"),
    ("COc1ccc(C[C@H](NC(=O)O[C@H]2CCO[C@H]3OCC[C@H]32)[C@H](O)CN(CC(C)C)S(=O)(=O)c2ccc(OC)cc2)cc1 [compound 2]", "< 0.1 nM"),
]

Look at each compound and report its Ki.
1. CCNC1CO[C@@H]2OCC[C@H](OC(=O)N[C@@H](Cc3ccccc3)[C@H](O)CN(CC(C)C)S(=O)(=O)c3ccc4nc(NC(C)C)sc4c3)C12 (some centres unmarked)
2. COc1ccc(S(=O)(=O)N(CC(C)C)C[C@@H](O)[C@H](Cc2ccccc2)NC(=O)O[C@H]2CCO[C@H]3OC[C@H](OC)[C@H]32)cc1
3. COc1cccc(C[C@H](NC(=O)O[C@H]2CCO[C@H]3OCC[C@H]32)[C@H](O)CN(CC(C)C)S(=O)(=O)c2ccc3nc(NC(C)C)oc3c2)c1
4. COc1ccc(C[C@H](NC(=O)O[C@H]2CCO[C@H]3OCC[C@H]32)[C@H](O)CN(CC(C)C)S(=O)(=O)c2ccc(N)cc2)cc1 [compound 1]
5. COc1ccc(C[C@H](NC(=O)O[C@H]2CCO[C@H]3OCC[C@H]32)[C@H](O)CN(C[C@H]2CCC(=O)N2)S(=O)(=O)c2ccc(OC)cc2)cc1 [compound 3]
6. COc1ccc(C[C@H](NC(=O)O[C@H]2CCO[C@H]3OCC[C@H]32)[C@H](O)CN(C[C@H]2CCC(=O)N2)S(=O)(=O)c2ccc(N)cc2)cc1 [compound 4]

Response:
1. < 0.1 nM
2. < 0.1 nM
3. < 0.1 nM
4. < 1 nM
5. < 0.1 nM
6. < 10 nM

Provide reported Ki for each item, in the same order as listed.
1. COc1ccc(S(=O)(=O)N(CC(C)C)C[C@@H](O)[C@H](Cc2ccccc2)NC(=O)O[C@H]2CCO[C@H]3OC[C@H](OCc4ccccc4)[C@H]32)cc1
2. COc1ccc(S(=O)(=O)N(CC(C)C)C[C@@H](O)[C@H](Cc2ccccc2)NC(=O)O[C@H]2CCO[C@H]3OC[C@H](O)[C@H]32)cc1
3. CC(C)CN(C[C@@H](O)[C@H](Cc1ccccc1)NC(=O)O[C@H]1CCO[C@H]2OCC(O)C21)S(=O)(=O)c1ccc2nc(NC(C)C)sc2c1 (some centres unmarked)
4. COc1ccc(C[C@H](NC(=O)O[C@H]2CCO[C@H]3OC[C@H](O)[C@H]32)[C@H](O)CN(CC(C)C)S(=O)(=O)c2ccc(OC)cc2)cc1
5. COc1cccc(C[C@H](NC(=O)O[C@H]2CCO[C@H]3OCC[C@H]32)[C@H](O)CN(CC(C)C)S(=O)(=O)c2ccc3nc(NC(C)C)sc3c2)c1
6. CC(C)CN(C[C@@H](O)[C@H](Cc1ccccc1)NC(=O)O[C@H]1CCO[C@H]2OCC[C@H]21)S(=O)(=O)c1ccc2nc(NC(C)C)sc2c1

Response:
1: < 1 nM; 2: < 0.1 nM; 3: < 0.1 nM; 4: < 0.1 nM; 5: < 0.1 nM; 6: < 0.1 nM

###

TARGET SYSTEM: HIV-1 protease (Human immunodeficiency virus type 1 group M subtype B)
PROTOCOL NOTES: HIV-1 protease enzyme inhibitory assay (protocol of Toth and Marshall)
Format: biochemical
CONDITION PARAMETERS: read-out: Ki
Task for the reader: assign each of the following compounds its reported pKi.
One number for each entry, as −log10 of the molar value.

Reference set (5 entries):
# COMPOUND, pKi
data = [
    ("COc1ccc(S(=O)(=O)N(CC(C)C)C[C@@H](O)[C@H](Cc2ccccc2)NC(=O)O[C@@H]2CCO[C@@H]3OCC[C@@H]32)cc1 [35b]", 10.17),
    ("COc1ccc(S(=O)(=O)N(CC(C)C)C[C@@H](O)[C@H](Cc2ccccc2)NC(=O)O[C@H]2CCO[C@H]3CCC[C@H]32)cc1 [35d]", 8.84),
    ("COc1ccc(S(=O)(=O)N(CC(C)C)C[C@@H](O)[C@H](Cc2ccccc2)NC(=O)O[C@H]2CCC[C@H]3OCC[C@@H]23)cc1 [35c]", 11.30),
    ("CC(C)CN(C[C@@H](O)[C@H](Cc1ccccc1)NC(=O)O[C@H]1CCO[C@H]2OCC[C@H]21)S(=O)(=O)c1ccc(CO)cc1 [compound 37]", 10.07),
    ("COc1ccc(S(=O)(=O)N(CC(C)C)C[C@@H](O)[C@H](Cc2ccccc2)NC(=O)O[C@H]2CCO[C@H]3COC[C@H]32)cc1 [35f]", 8.28),
]

I have 3 compounds here; please give me pKi for each one.
1. COc1ccc(S(=O)(=O)N(CC(C)C)C[C@@H](O)[C@H](Cc2ccccc2)NC(=O)O[C@H]2CO[C@H]3OCC[C@H]3C2)cc1 [35g]
2. COc1ccc(S(=O)(=O)N(CC(C)C)C[C@@H](O)[C@H](Cc2ccccc2)NC(=O)O[C@H]2CCC[C@H]3CCC[C@H]32)cc1 [35e]
3. CC(C)CN(C[C@@H](O)[C@H](Cc1ccccc1)NC(=O)O[C@H]1CCO[C@H]2OCC[C@H]21)S(=O)(=O)c1ccc(N)cc1 [compound 36]

Response:
1. 9.96
2. 8.05
3. 11.00

###

Tested on: HIV-1MDR/TM (X4)
PROTOCOL NOTES: Antiviral activity in PHA-PBMs, p24 Gag, multidrug resistant clinical isolate
Type: cell-based
CONDITION PARAMETERS: PHA-PBMs, p24 Gag
METRIC: EC50 (nM)
Answers are plain numbers, in nM.

Query: Kindly state the measured EC50 obtained for "COC(=O)N[C@H](C(=O)N[C@@H](Cc1ccccc1)[C@@H](O)CN(Cc1ccc(-c2ccccn2)cc1)NC(=O)[C@@H](NC(=O)OC)C(C)(C)C)C(C)(C)C" with HIV-1MDR/TM (X4).
Response: 75

Taken from patent US9024038B2.
